- Target Or System: ZFP SBS#217 (synthetic)
- Sequence (chain, as listed by the source): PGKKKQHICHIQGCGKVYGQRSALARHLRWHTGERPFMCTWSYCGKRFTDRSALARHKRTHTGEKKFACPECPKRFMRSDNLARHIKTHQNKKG
- Protocol Details: EMSA
- Setup Conditions: tags: MBP fusion
Readout Kind: pKd
Value format note: pKd is -log10 of concentration (mol/L); just state the number.

Recorded result, GAGGTCGTA (dsDNA) DNA 1: GAGGTCGTA DNA 2: TACGACCTC , pKd: 7.40
